- Test system: UACC-257 melanoma
- experimental_details: NCI tumour cell line growth inhibition, 48 h
Measured TGI values are reported for all entries that follow.

Below, each entry is followed by its recorded TGI result.
Would you kindly share the measured TGI for ClC1=C(Cl)C(Cl)(Cl)c2c3c(c4c(c21)C(Cl)(Cl)C(Cl)=C4Cl)C(Cl)(Cl)C(Cl)=C3Cl ?
> 100 µM

Would you kindly repeat that for C[CH2][Hg][S]c1ccccc1C(=O)O ?
2.45 µM

Would you kindly repeat that for O=C(Cc1nc2ccccc2o1)C(=O)Nc1cccc(C(F)(F)F)c1 ?
> 100 µM

Would you kindly repeat that for N#CCN1C(=O)c2cc([N+](=O)[O-])cc3cc([N+](=O)[O-])cc(c23)C1=O ?
28.6 µM

Would you kindly repeat that for O=c1[nH]c2nc3ccccc3c(=O)n2/c1=C/c1ccco1 ?
> 100 µM

Others:
Would you kindly share the measured TGI for CCOC(=O)C1Nc2ccccc2[C@H]2OCC[C@@H]12 (stereo partly specified) ?
> 100 µM

Would you kindly repeat that for O=NN(CCF)C(=O)NC1CCSCC1 ?
> 100 µM

Would you kindly repeat that for O=C(O)c1ccccc1NC(=S)c1ccccc1 ?
> 100 µM

Would you kindly repeat that for Clc1ccc2oc(CCc3ccccc3)nc2c1 ?
> 100 µM

Would you kindly repeat that for Cc1cccc(NC(=O)/C(=N\N)C(c2cnc3ccc([N+](=O)[O-])cc3n2)[N+](=O)[O-])c1C (stereo unspecified) ?
> 100 µM

Would you kindly repeat that for Cc1[nH]c(-c2cc(N)ccc2Cl)c2c1C(=O)CCCC2 ?
> 100 µM

###

Measured TGI values are reported for all entries that follow.
- System: PC-3 prostate
- experimental_details: NCI tumour cell line growth inhibition, 48 h

Below, each entry is followed by its recorded TGI result.
Would you kindly share the measured TGI for O=c1[nH]c(Nc2nc3ccccc3[nH]2)nc(O)c1Cc1ccccc1 ?
> 100 µM

Would you kindly repeat that for CC(=O)O[C@@H]1C[C@@]2(C)[C@@H]3CC=C4[C@@H](C[C@H](O)C(=O)C4(C)C)[C@]3(C)C(=O)C[C@]2(C)[C@H]1[C@@](C)(O)C(=O)/C=C/C(C)(C)OC(C)=O ?
> 47 µM

Would you kindly repeat that for Oc1cc(-n2cccn2)c(O)cc1-n1cccn1 ?
44.8 µM

Others:
Would you kindly share the measured TGI for CCN(CC)c1nnc(CCCCCCCCc2nnc(N(CC)CC)o2)o1 ?
> 100 µM

Would you kindly repeat that for Oc1c(-c2cc(C(F)(F)F)[nH]n2)cc(Cl)c(OCc2ccc(Cl)cc2)c1-c1ccc(Cl)c(C(F)(F)F)c1 ?
5.09 µM

Would you kindly repeat that for COc1ccc2c(c1)C(=O)c1c-2c(OCCN(C)C)nc2ccccc12 ?
21.4 µM

Would you kindly repeat that for c1cc(N2CCN(c3ccc(C4=NCCCN4)cc3)CC2)ccc1C1=NCCCN1 ?
> 100 µM

Would you kindly repeat that for C[n+]1c2ccccc2nc2c(N)cc(N)cc21 ?
> 100 µM

Would you kindly repeat that for COc1cc(/C=C/c2ccc3c(Br)cc(Br)c(O)c3n2)ccc1O ?
15.1 µM

Would you kindly repeat that for O=C1C(OCCOc2ccccc2)=C(OCCOc2ccccc2)C(=O)c2ccccc21 ?
> 100 µM

Would you kindly repeat that for CCN1C(=O)N(CC)C2C1NN=c1s/c(=C\c3ccc(F)cc3)c(=O)n12 (stereo unspecified) ?
> 100 µM

Would you kindly repeat that for O=C(NNS(=O)(=O)c1ccc(Cl)cc1Cl)c1cccnc1Nc1ccc(Cl)cc1 ?
80.4 µM

Would you kindly repeat that for C1CSCCSCCCSCCSCCCSCCSCCCSCCSC1 ?
> 100 µM

Would you kindly repeat that for COC(=O)C(Cc1c[nH]c2ccccc12)N=C1Nc2ccncc2S(=O)(=O)N1c1cccc(OC(C)C)c1 (stereo unspecified) ?
> 100 µM

Would you kindly repeat that for CN1CCN(CCCCCN=c2cc3c(=O)n(CCCCCN4CCN(C)CC4)c(=O)c4c(NCCCCCN5CCN(C)CC5)cc5c(O)n(CCCCCN6CCN(C)CC6)c(=O)c2c5c4-3)CC1 ?
19.4 µM

Would you kindly repeat that for O=c1[nH]nc(-c2ccccc2)n1O ?
> 100 µM

Would you kindly repeat that for C[CH2][Hg][S]c1ccccc1C(=O)O ?
17.7 µM

Would you kindly repeat that for CN(C)CCNC(=O)c1cccc2c(NC(CCC(N)=O)C(=O)O)c3ccccc3nc12 (stereo unspecified) ?
23.5 µM

Would you kindly repeat that for CCc1ccc2c(c1)N(CC(C)CN(C)C)c1ccccc1S2 (stereo unspecified) ?
17.1 µM

Would you kindly repeat that for CN=C(Nc1cccc(C(F)(F)F)c1)SCc1ccc(N=C=S)cc1 ?
29.4 µM

Would you kindly repeat that for COc1cccc(Oc2ccccc2NC(=O)CNC(=O)c2cccc3ccccc23)c1 ?
> 25 µM

###

- Tested on: ACHN renal
- experimental_details: NCI tumour cell line growth inhibition, 48 h
property_measured: TGI

Below, each entry is followed by its recorded TGI result.
Would you kindly share the measured TGI for Nc1n[nH]c2ccc([C@@H]3Nc4cc5c(cc4[C@H]4C6CCC(C6)[C@@H]34)C(=O)NC5)cc12 (stereo not given in full) ?
> 100 µM

Would you kindly repeat that for FC(F)(F)c1cccc(-c2nn3ncccc3c2-c2ccnc(Nc3ccc4c(c3)OCCO4)n2)c1 ?
> 25 µM

Others:
Would you kindly share the measured TGI for O=C1c2ccccc2N2OC3(N4CCCC4)CCCCC3C12c1ccccc1 (stereo not given) ?
43.8 µM

Would you kindly repeat that for CCN1C(=O)N(CC)C2C1NN=c1s/c(=C\c3ccc(F)cc3)c(=O)n12 (stereo not given) ?
> 100 µM

Would you kindly repeat that for CCN(CC)C1Oc2cc3c(cc2C(c2cccc(OC)c2OC)C1C)OCO3 (stereo not given) ?
29.5 µM

Would you kindly repeat that for CC(C)/C(Cl)=N/OC(=O)Nc1ccc(Cl)c(Cl)c1 ?
3.72 µM

Would you kindly repeat that for c1cc(-c2cn3c(n2)SCC3)ccn1 ?
> 100 µM

###

- System: SR leukemia
- experimental_details: NCI tumour cell line growth inhibition, 48 h
Measured GI50 values are reported for all entries that follow.

Would you kindly share the measured GI50 for Cc1[nH]c(-c2cc(N)ccc2Cl)c2c1C(=O)CCCC2 ?
2.64 µM

Would you kindly repeat that for COc1ccc2c(c1)C(=O)c1c-2c(OCCN(C)C)nc2ccccc12 ?
0.998 µM

Others:
Would you kindly share the measured GI50 for COc1ccc(Nc2ccnc(N3CCN(c4ccnc5cc(Cl)ccc45)CC3)n2)cc1 ?
0.601 µM

Would you kindly repeat that for COc1cc2ncc3c(nc4sccn43)c2cc1OC ?
12.4 µM

Would you kindly repeat that for C[C@@H]1O[C@@H](O[C@@H]2[C@@H](O)[C@H](OCCc3ccc(O)c(O)c3)O[C@H](CO)[C@H]2OC(=O)/C=C/c2ccc(O)c(O)c2)[C@H](O)[C@H](OC2OC[C@](O)(CO)[C@H]2O)[C@H]1O (stereo partly specified) ?
> 100 µM

Would you kindly repeat that for CC(C)C[C@H](NC(=O)CCn1ccc2ccccc2c1=O)B(O)O ?
1.7 µM

###

- System: OVCAR-5 ovarian
- experimental_details: NCI tumour cell line growth inhibition, 48 h
Measured TGI values are reported for all entries that follow.

Below, each entry is followed by its recorded TGI result.
Would you kindly share the measured TGI for COc1cc(CNc2nc3ccccc3nc2C(=O)O)cc(OC)c1OC ?
> 100 µM

Would you kindly repeat that for C[C@@H]1O[C@@H](O[C@@H]2[C@@H](O)[C@H](OCCc3ccc(O)c(O)c3)O[C@H](CO)[C@H]2OC(=O)/C=C/c2ccc(O)c(O)c2)[C@H](O)[C@H](OC2OC[C@](O)(CO)[C@H]2O)[C@H]1O (some centres undefined) ?
> 100 µM

Would you kindly repeat that for N#CCCC1(CCC#N)CCCCCCCCC(CCC#N)(CCC#N)C(O)C1O (centres undefined) ?
> 100 µM

Others:
Would you kindly share the measured TGI for CCN(CC)C1Oc2cc3c(cc2C(c2cccc(OC)c2OC)C1C)OCO3 (centres undefined) ?
48.6 µM

Would you kindly repeat that for CCCn1c(=O)c(N2CCN(c3ccccc3)CC2)nc2sc3ccccc3c21 ?
> 100 µM

Would you kindly repeat that for c1ccc(CC2COC(c3cccs3)=N2)cc1 (centres undefined) ?
> 100 µM

Would you kindly repeat that for COC(=O)C(=O)Cc1nc2ccccc2o1 ?
> 100 µM

Would you kindly repeat that for OC(c1cccnc1Cl)c1nc2ccccc2c2ccnc(Cl)c12 (centres undefined) ?
> 100 µM

Would you kindly repeat that for CCCCCCCCCCCC[N+](CCCCCCCCCCCC)=C1SCCS1 ?
25.1 µM

Would you kindly repeat that for CO/N=C1/c2sccc2[C@H](NC(=O)C(Cc2ccccc2)NC(=O)OC(C)(C)C)[C@@H]1O (some centres undefined) ?
> 100 µM

Would you kindly repeat that for CC(C)(C)NC(=O)CCC1C(C(=O)NC(C)(C)C)C2(Cl)C(Cl)=C(Cl)C1(Cl)C2(Cl)Cl (centres undefined) ?
> 100 µM

Would you kindly repeat that for Nc1ccc(Nc2cc(=O)[nH]c(=O)[nH]2)cc1Cl ?
> 100 µM

Would you kindly repeat that for COc1cc(C(=O)c2cc(C)c3[nH]c4ccc(O)cc4c3c2C)cc(OC)c1OC ?
> 100 µM

Would you kindly repeat that for N/C(=N\OC(=O)c1ccccc1)C(Cc1ccccc1)C(=O)NOC(=O)c1ccccc1 (centres undefined) ?
24.3 µM
